- Tested System: human D3R (Homo sapiens (Human), UniProt P35462)
- Sequence (P35462 whole entry): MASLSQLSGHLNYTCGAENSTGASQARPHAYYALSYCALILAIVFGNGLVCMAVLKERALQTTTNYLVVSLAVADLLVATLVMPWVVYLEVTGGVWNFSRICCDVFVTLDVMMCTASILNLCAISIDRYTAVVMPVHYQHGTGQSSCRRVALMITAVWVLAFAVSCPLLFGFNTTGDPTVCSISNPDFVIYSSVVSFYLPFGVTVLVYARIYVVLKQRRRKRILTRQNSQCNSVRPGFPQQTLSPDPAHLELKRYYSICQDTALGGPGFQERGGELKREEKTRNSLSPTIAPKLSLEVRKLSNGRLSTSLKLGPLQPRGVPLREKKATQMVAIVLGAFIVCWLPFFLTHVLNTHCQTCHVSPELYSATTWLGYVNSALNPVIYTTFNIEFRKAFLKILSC
- Assay Info: Radioligand competition binding, [3H]N-methylspiperone, HEK293 membranes expressing human D3R
Below is a list of entries, each paired with its recorded D3R selectivity over D2R (D2R/D3R) value.
Reported Metric: D3R selectivity over D2R (D2R/D3R) (fold)

>>> observed_measurement("CCc1cccc(N2CCN(C[C@H](F)CCNC(=O)c3cc4ccccc4[nH]3)CC2)c1Cl [(R)-C5a]")
215
>>> observed_measurement("CCc1cccc(N2CCN(CC(F)CCNC(=O)c3cc4ccccc4[nH]3)CC2)c1Cl (racemic)")
327
>>> observed_measurement("CCc1cc(Cl)c(OC)c(N2CCN(C[C@@H](F)CCNC(=O)c3cc4ccccc4[nH]3)CC2)c1 [(S)-C4a]")
535
>>> observed_measurement("CCc1cc(Cl)c(OC)c(N2CCN(C[C@H](F)CCNC(=O)c3cc4ccccc4[nH]3)CC2)c1 [(R)-C4a]")
1650

---

- Tested System: UniProt P08908
- Sequence (P08908 whole entry, species assumed): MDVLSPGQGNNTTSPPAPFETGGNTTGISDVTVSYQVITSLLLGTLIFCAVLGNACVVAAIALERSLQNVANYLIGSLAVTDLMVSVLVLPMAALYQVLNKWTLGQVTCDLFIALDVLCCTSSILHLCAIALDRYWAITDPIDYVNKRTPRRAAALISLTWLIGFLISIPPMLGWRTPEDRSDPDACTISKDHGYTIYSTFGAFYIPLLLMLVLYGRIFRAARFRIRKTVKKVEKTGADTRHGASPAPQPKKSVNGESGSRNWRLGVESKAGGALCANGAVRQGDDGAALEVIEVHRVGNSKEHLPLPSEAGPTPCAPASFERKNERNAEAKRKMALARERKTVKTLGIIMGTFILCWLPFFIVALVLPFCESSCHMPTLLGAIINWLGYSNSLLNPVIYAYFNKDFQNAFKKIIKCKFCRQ
- Assay Info: 5-HT1A [3H]-8-OH-DPAT binding
- Experimental Context: Table 3a; read-out: 5-HT1A [3H]-8-OH-DPAT Ki ± SEM
pKi: −log10 of the molar value.
Below is a list of entries, each paired with its recorded pKi value.
Reported Metric: pKi

>>> observed_measurement("CCc1cccc(N2CCN(CC(O)CCNC(=O)c3cc4ccccc4o3)CC2)c1Cl (stereo not shown)")
7.56
>>> observed_measurement("CCc1cccc(N2CCN(CCCCNC(=O)c3cc4ccccc4o3)CC2)c1Cl")
7.59
>>> observed_measurement("CCc1cc(Cl)c(OC)c(N2CCN(CCCCNC(=O)c3cc4ccccc4[nH]3)CC2)c1")
5.63
>>> observed_measurement("CCc1cc(Cl)c(OC)c(N2CCN(CC(O)CCNC(=O)c3cc4ccccc4o3)CC2)c1 (stereo not shown)")
5.62
>>> observed_measurement("CCc1cccc(N2CCN(CCCCNC(=O)c3cc4ccccc4[nH]3)CC2)c1Cl")
7.23
>>> observed_measurement("CCc1cccc(N2CCN(CC(O)CCNC(=O)c3cc4ccccc4[nH]3)CC2)c1Cl (racemic)")
6.06
>>> observed_measurement("CCc1cc(Cl)c(OC)c(N2CCN(CCCCNC(=O)c3cc4ccccc4o3)CC2)c1")
6.25

---

- Tested System: human D2R (Homo sapiens (Human))
- Sequence (P14416 whole entry): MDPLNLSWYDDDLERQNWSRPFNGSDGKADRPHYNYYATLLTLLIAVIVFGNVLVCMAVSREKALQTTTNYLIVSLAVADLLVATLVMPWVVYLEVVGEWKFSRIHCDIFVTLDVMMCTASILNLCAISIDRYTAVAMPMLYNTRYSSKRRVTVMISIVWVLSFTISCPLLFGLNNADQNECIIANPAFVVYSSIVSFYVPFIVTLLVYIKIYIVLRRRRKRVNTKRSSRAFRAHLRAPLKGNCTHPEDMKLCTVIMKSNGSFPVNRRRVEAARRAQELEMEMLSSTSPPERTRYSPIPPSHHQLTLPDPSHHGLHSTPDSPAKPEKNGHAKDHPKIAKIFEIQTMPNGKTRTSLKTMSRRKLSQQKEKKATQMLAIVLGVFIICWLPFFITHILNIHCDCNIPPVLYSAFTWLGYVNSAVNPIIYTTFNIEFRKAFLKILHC
- Assay Info: Radioligand competition binding, [3H]N-methylspiperone, HEK293 membranes expressing human D2R
- Experimental Context: Table 1A; HEK 293 cells transfected with hD2LR, [3H]N-methylspiperone; read-out: D2R Ki ± SEM
pKi: −log10 of the molar value.
Reported Metric: pKi

>>> observed_measurement("CCc1cccc(N2CCN(CCCCNC(=O)c3cc4ccccc4[nH]3)CC2)c1Cl")
8.26
>>> observed_measurement("CCc1cccc(N2CCN(CC(O)CCNC(=O)c3cc4ccccc4o3)CC2)c1Cl (stereo not shown)")
6.79
>>> observed_measurement("CCc1cccc(N2CCN(CCCCNC(=O)c3nc(C)c[nH]3)CC2)c1Cl")
7.91
>>> observed_measurement("CCc1cccc(N2CCN(CCCCNC(=O)c3cn4ccccc4n3)CC2)c1Cl")
8.25

---

- Tested System: human D4R (Homo sapiens (Human))
- Sequence (P21917 whole entry): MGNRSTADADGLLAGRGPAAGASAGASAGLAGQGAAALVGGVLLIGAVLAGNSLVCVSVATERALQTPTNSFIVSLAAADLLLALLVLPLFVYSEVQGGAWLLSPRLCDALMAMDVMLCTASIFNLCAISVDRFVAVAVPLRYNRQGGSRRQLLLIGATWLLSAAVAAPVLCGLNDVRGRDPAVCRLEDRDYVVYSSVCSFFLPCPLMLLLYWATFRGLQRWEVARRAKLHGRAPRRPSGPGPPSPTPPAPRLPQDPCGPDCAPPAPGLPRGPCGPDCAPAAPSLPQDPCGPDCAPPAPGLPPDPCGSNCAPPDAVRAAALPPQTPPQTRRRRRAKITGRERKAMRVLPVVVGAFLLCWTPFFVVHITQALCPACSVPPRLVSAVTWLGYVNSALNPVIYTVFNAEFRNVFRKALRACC
- Assay Info: Radioligand competition binding, [3H]N-methylspiperone, HEK293 membranes expressing human D4R
- Experimental Context: Table 1A; ratio of Ki values
Reported Metric: D4/D3

>>> observed_measurement("CCc1cccc(N2CCN(CC(O)CCNC(=O)c3nc(C)c[nH]3)CC2)c1Cl (stereo not drawn) [Compound 27]")
175
>>> observed_measurement("CCc1c[nH]c(C(=O)NCCCCN2CCN(c3cccc(CC)c3Cl)CC2)n1 [Compound 25]")
439
>>> observed_measurement("CCc1cccc(N2CCN(CC(O)CCNC(=O)c3cn4ccccc4n3)CC2)c1Cl (stereo not drawn) [Compound 23]")
2671
>>> observed_measurement("CCc1cccc(N2CCN(CCCCNC(=O)c3c(C)nc4sccn34)CC2)c1Cl [Compound 24]")
152
>>> observed_measurement("CCc1cccc(N2CCN(CC(O)CCNC(=O)c3cc4ccccc4o3)CC2)c1Cl (stereo not drawn) [Compound 21]")
2417
>>> observed_measurement("CCc1cc(Cl)c(OC)c(N2CCN(CCCCNC(=O)c3cc4ccccc4o3)CC2)c1 [Compound 30]")
224
